# test-name: DRUGMATRIX: Nicotinic Acetylcholine radioligand binding (ligand: [125I] Epibatidine)
# Type: cell membranes, Membrane
# condition-label: imr-32; Not Active = under 50% inhibition at 10 µM

- substance: "THIMEROSAL"
  Ki: "Not Active"
- substance: "POLYVINYL ALCOHOL"
  Ki: "Not Active"
- substance: "STANNOUS FLUORIDE"
  Ki: "Not Active"
- substance: "COBALT(II) ACETYLACETONATE"
  Ki: "Not Active"
- substance: "INSULIN HUMAN"
  Ki: "Not Active"

###

# system: Acetylcholinesterase (Homo sapiens)
# Sequence (P22303 whole entry): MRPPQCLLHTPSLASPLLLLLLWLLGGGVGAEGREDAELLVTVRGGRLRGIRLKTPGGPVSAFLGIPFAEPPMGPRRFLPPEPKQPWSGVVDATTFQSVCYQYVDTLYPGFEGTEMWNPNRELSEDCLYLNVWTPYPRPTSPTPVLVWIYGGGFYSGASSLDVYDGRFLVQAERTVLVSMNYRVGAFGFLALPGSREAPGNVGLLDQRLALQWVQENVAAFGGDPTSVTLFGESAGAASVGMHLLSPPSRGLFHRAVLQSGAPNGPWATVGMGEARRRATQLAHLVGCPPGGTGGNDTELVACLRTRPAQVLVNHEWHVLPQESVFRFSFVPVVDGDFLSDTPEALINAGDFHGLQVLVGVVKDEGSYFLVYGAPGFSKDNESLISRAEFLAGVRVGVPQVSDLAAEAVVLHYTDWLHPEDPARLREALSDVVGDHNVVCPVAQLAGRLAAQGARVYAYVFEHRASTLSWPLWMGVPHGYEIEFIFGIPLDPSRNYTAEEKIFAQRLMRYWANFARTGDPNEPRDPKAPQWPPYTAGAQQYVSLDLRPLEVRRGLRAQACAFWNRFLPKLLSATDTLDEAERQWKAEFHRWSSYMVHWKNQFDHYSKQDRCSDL
# test-name: DRUGMATRIX: Acetylcholinesterase enzyme inhibition (substrate: acetylthiocholine)
# Assay type: cell-based, HEK293
# condition-label: hek293; Not Active = under 50% inhibition at 10 µM
measurement-label: IC50

- molecule: "CO[C@H]1C[C@@H]2CC[C@@H](C)[C@@](O)(O2)C(=O)C(=O)N2CCCC[C@H]2C(=O)O[C@H]([C@H](C)C[C@@H]2CC[C@@H](O)[C@H](OC)C2)CC(=O)[C@H](C)/C=C(\\C)[C@@H](O)[C@@H](OC)C(=O)[C@H](C)C[C@H](C)/C=C/C=C/C=C/1C"
  result: "Not Active"
- molecule: "Cc1c(N(C)CS(=O)(=O)[O-])c(=O)n(-c2ccccc2)n1C.[Na+] [DIPYRONE SODIUM]"
  result: "Not Active"
- molecule: "O=C(O)c1cc(=O)c2c(OCC(O)COc3cccc4oc(C(=O)O)cc(=O)c34)cccc2o1"
  result: "Not Active"
- molecule: "O=C(O)Cc1ccc(-c2ccccc2)cc1"
  result: "Not Active"
- molecule: "CC(=O)Nc1nnc(S(N)(=O)=O)s1 [ACETAZOLAMIDE]"
  result: "Not Active"
- molecule: "CO[C@@]1(NC(=O)CSCC#N)C(=O)N2C(C(=O)O)=C(CSc3nnnn3C)CS[C@@H]21"
  result: "Not Active"
- molecule: "Nc1nc2c(c(=O)[nH]1)N(C=O)C(CNc1ccc(C(=O)N[C@@H](CCC(=O)O)C(=O)O)cc1)CN2 (stereo not given in full)"
  result: "Not Active"
- molecule: "CCOC(=O)[C@H](CCc1ccccc1)N[C@@H](C)C(=O)N1CCC[C@H]1C(=O)O"
  result: "Not Active"
- molecule: "C=C1/C(=C\\C=C2/CCC[C@]3(C)[C@@H]([C@H](C)CCCC(C)C)CC[C@@H]23)C[C@@H](O)C[C@@H]1O"
  result: "Not Active"
- molecule: "CC(=O)O[C@H]1C[C@@H]2CC[C@@H]3[C@H](CC[C@@]4(C)[C@H]3C[C@H]([N+]3(C)CCCCC3)[C@@H]4OC(C)=O)[C@@]2(C)C[C@@H]1N1CCCCC1.[Br-] [VECURONIUM BROMIDE]"
  result: "Not Active"
- molecule: "CCCc1nn(C)c2c(=O)[nH]c(-c3cc(S(=O)(=O)N4CCN(C)CC4)ccc3OCC)nc12"
  result: "Not Active"
- molecule: "Nn1nnc2ccccc21"
  result: "Not Active"
- molecule: "NC(=O)N1c2ccccc2C=Cc2ccccc21 [CARBAMAZEPINE]"
  result: "Not Active"
- molecule: "CCS(=O)(=O)CCn1c([N+](=O)[O-])cnc1C"
  result: "Not Active"
- molecule: "Nc1nc(Cl)nc2c1ncn2[C@H]1C[C@H](O)[C@@H](CO)O1"
  result: "Not Active"

###

# test-name: DRUGMATRIX: Serotonin (5-Hydroxytryptamine) 5-HT3 radioligand binding (ligand: [3H] GR-65630)
# Format: cell membranes, Membrane
# condition-label: hek293; Not Active = under 50% inhibition at 10 µM
measurement-label: Ki

- compound: "CCOC(=O)C1=C(C)NC(C)=C(C(=O)OC)C1c1cccc(Cl)c1Cl (centres undefined)"
  result: "Not Active"
- compound: "O=C(O)c1cc(=O)c2c(OCC(O)COc3cccc4oc(C(=O)O)cc(=O)c34)cccc2o1"
  result: "Not Active"
- compound: "NC[C@H]1O[C@H](O[C@H]2[C@H](O)[C@@H](O[C@H]3O[C@H](CO)[C@@H](O)[C@H](N)[C@H]3O)[C@H](N)C[C@@H]2N)[C@H](N)C[C@@H]1O"
  result: "Not Active"
- compound: "C#C[C@]1(O)CC[C@H]2[C@@H]3CCc4cc(O)ccc4[C@H]3CC[C@@]21C"
  result: "Not Active"
- compound: "C[C@@H](O)[C@H]1C(=O)N2C(C(=O)O)=C(S[C@@H]3CN[C@H](C(=O)N(C)C)C3)[C@H](C)[C@H]12"
  result: "Not Active"
- compound: "COc1cc(N)nc2[nH]c(-c3ccc(F)cc3)c(-c3ccncc3)c12"
  result: "Not Active"
- compound: "CCc1oc2ccccc2c1C(=O)c1cc(Br)c(O)c(Br)c1"
  result: "Not Active"
- compound: "CC(=O)O[C@]1(C(C)=O)CC[C@H]2[C@@H]3C=C(Cl)C4=CC(=O)[C@@H]5C[C@@H]5[C@]4(C)[C@H]3CC[C@@]21C [CYPROTERONE ACETATE]"
  result: "Not Active"
- compound: "O=P(O)(O)C(O)(Cc1cccnc1)P(=O)(O)O"
  result: "Not Active"
- compound: "CC(CCc1ccc(O)cc1)NCCc1ccc(O)c(O)c1 (centres undefined)"
  result: "Not Active"
- compound: "Cc1c(N(C)CS(=O)(=O)[O-])c(=O)n(-c2ccccc2)n1C.[Na+] [DIPYRONE SODIUM]"
  result: "Not Active"
- compound: "CO[C@@]1(NC(=O)CSCC#N)C(=O)N2C(C(=O)O)=C(CSc3nnnn3C)CS[C@@H]21"
  result: "Not Active"
- compound: "CC[C@H]1OC(=O)[C@H](C)[C@@H](O[C@H]2C[C@@](C)(OC)[C@@H](O)[C@H](C)O2)[C@H](C)[C@@H](O[C@@H]2O[C@H](C)C[C@H](N(C)C)[C@H]2O)[C@](C)(O)C[C@@H](C)CN(C)[C@H](C)[C@@H](O)[C@]1(C)O"
  result: "Not Active"
- compound: "CC(C)(C)NC[C@H](O)COc1nsnc1N1CCOCC1"
  result: "Not Active"

###

# system: C-C chemokine receptor type 2 (Homo sapiens, UniProt P41597); further: in other assays of this panel Not Active means under 50% inhibition at 10 µM
# Sequence (P41597 whole entry): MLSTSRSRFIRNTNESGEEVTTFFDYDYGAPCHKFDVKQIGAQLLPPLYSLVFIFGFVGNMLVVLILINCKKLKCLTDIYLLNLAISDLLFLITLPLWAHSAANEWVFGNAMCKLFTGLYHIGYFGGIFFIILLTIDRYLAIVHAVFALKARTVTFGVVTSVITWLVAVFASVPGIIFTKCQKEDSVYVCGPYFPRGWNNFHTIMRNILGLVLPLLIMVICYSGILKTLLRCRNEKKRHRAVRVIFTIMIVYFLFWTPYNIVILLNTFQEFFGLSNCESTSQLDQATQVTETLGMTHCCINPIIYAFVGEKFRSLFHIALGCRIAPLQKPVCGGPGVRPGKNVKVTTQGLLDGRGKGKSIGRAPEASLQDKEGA
# Assay type: cell membranes, CHO-K1, Membrane
# condition-label: read-out: Ki

- compound: "CC(C)(C)c1ccc(S(=O)(=O)/C=C/C#N)cc1 [BAY-11-7085]"
  Ki (nM): 1610

###

# system: UniProt P21554
# Sequence (P21554 whole entry): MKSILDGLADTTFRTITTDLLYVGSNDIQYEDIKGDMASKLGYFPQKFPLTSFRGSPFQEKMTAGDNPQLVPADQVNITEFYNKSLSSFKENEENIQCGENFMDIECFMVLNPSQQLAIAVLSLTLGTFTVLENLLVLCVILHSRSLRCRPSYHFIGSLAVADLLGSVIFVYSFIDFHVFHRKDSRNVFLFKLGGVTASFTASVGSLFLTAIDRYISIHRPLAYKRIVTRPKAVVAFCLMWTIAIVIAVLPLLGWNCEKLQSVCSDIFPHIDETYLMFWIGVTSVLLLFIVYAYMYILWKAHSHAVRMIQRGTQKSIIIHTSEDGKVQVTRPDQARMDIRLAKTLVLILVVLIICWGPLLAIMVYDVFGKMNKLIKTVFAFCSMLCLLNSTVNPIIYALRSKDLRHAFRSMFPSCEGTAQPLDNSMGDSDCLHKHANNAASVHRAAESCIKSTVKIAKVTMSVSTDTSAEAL
# Format: cell membranes, Membrane
# condition-label: chem-1

- molecule: "CNS(=O)(=O)Cc1ccc2[nH]cc(CCN(C)C)c2c1"
  IC50: "Not Active"
- molecule: "CC(C)(C)NC[C@H](O)COc1nsnc1N1CCOCC1 [TIMOLOL]"
  IC50: "Not Active"
- molecule: "COc1ccc(Cc2nccc3cc(OC)c(OC)cc23)cc1OC [PAPAVERINE]"
  IC50: "Not Active"
- molecule: "CCCCCC[C@H]1C(=O)O[C@H](C)[C@H](NC(=O)c2cccc(NC=O)c2O)C(=O)O[C@@H](C)[C@@H]1OC(=O)CC(C)C [ANTIMYCIN A]"
  IC50: "Not Active"
- molecule: "Cc1cnc(C(=O)NCCc2ccc(S(=O)(=O)NC(=O)NC3CCCCC3)cc2)cn1 [GLIPIZIDE]"
  IC50: "Not Active"
- molecule: "NC(=O)N1c2ccccc2C=Cc2ccccc21 [CARBAMAZEPINE]"
  IC50: "Not Active"
- molecule: "N[C@@H](Cc1ccc(F)cc1)C(=O)O"
  IC50: "Not Active"
- molecule: "CCS(=O)(=O)CCn1c([N+](=O)[O-])cnc1C [TINIDAZOLE]"
  IC50: "Not Active"
- molecule: "C[C@]12C/C(=C/O)C(=O)C[C@@H]1CC[C@@H]1[C@@H]2CC[C@@]2(C)[C@H]1CC[C@]2(C)O [OXYMETHOLONE]"
  IC50: "Not Active"
- molecule: "Nc1nc(N)nc(NC2CC2)n1 [CYROMAZINE]"
  IC50: "Not Active"
- molecule: "C/C=C\\c1ccc(O)c(OC)c1 [ISOEUGENOL]"
  IC50: "Not Active"
- molecule: "CC[C@H]1OC(=O)[C@H](C)[C@@H](O[C@H]2C[C@@](C)(OC)[C@@H](O)[C@H](C)O2)[C@H](C)[C@@H](O[C@@H]2O[C@H](C)C[C@H](N(C)C)[C@H]2O)[C@](C)(O)C[C@@H](C)CN(C)[C@H](C)[C@@H](O)[C@]1(C)O [AZITHROMYCIN]"
  IC50: "Not Active"
- molecule: "Cc1cccc(Nc2ccccc2C(=O)O)c1C [MEFENAMIC ACID]"
  IC50: "Not Active"
- molecule: "CN1C(=O)CN=C(c2ccccc2)c2cc(Cl)ccc21 [DIAZEPAM]"
  IC50: "Not Active"
- molecule: "C[C@H](C(=O)O)c1cccc(C(=O)c2ccccc2)c1 [DEXKETOPROFEN]"
  IC50: "Not Active"
- molecule: "CC1=C(CC(=O)O)c2cc(F)ccc2/C1=C\\c1ccc(S(C)(=O)=O)cc1 [EXISULIND]"
  IC50: "Not Active"
- molecule: "CO[C@@]1(NC(=O)CSCC#N)C(=O)N2C(C(=O)O)=C(CSc3nnnn3C)CS[C@@H]21 [CEFMETAZOLE]"
  IC50: "Not Active"
- molecule: "CCOC(N)=O"
  IC50: "Not Active"
- molecule: "CNC(=C[N+](=O)[O-])NCCSCc1csc(CN(C)C)n1 [NIZATIDINE]"
  IC50: "Not Active"
- molecule: "CCN[C@@H](C)Cc1cccc(C(F)(F)F)c1 [DEXFENFLURAMINE]"
  IC50: "Not Active"
- molecule: "CCN(CC)CC#CCOC(=O)C(O)(c1ccccc1)C1CCCCC1 (centres undefined) [OXYBUTYNIN]"
  IC50: "Not Active"
- molecule: "CN[C@@H]1[C@H](O)[C@H](NC)[C@H]2O[C@@]3(O)C(=O)C[C@@H](C)O[C@H]3O[C@@H]2[C@H]1O [SPECTINOMYCIN]"
  IC50: "Not Active"
- molecule: "CC[C@H](C)C(=O)O[C@H]1C[C@H](O)C=C2C=C[C@H](C)[C@H](CC[C@@H](O)C[C@@H](O)CC(=O)O)[C@H]21 [PRAVASTATIN]"
  IC50: "Not Active"
- molecule: "COc1ccc(/C=C/C(=O)Nc2ccccc2C(=O)O)cc1OC"
  IC50: "Not Active"
- molecule: "Nc1nc2c(c(=O)[nH]1)N(C=O)C(CNc1ccc(C(=O)N[C@@H](CCC(=O)O)C(=O)O)cc1)CN2 (some centres undefined) [LEUCOVORIN]"
  IC50: "Not Active"
- molecule: "C#C[C@]1(O)CC[C@H]2[C@@H]3CCc4cc(O)ccc4[C@H]3CC[C@@]21C [ETHINYL ESTRADIOL]"
  IC50: "Not Active"
- molecule: "C[C@@H]1CC[C@H]2[C@@H](C)C(=O)O[C@@H]3O[C@@]4(C)CC[C@@H]1[C@]32OO4 [ARTEMISININ]"
  IC50: "Not Active"
- molecule: "Cc1cn([C@H]2C[C@H](N=[N+]=[N-])[C@@H](CO)O2)c(=O)[nH]c1=O [ZIDOVUDINE]"
  IC50: "Not Active"
- molecule: "Nc1ccc(S(=O)(=O)Nc2ncccn2)cc1 [SULFADIAZINE]"
  IC50: "Not Active"
- molecule: "CC(=O)Nc1nnc(S(N)(=O)=O)s1 [ACETAZOLAMIDE]"
  IC50: "Not Active"
- molecule: "CC(C)(C)c1ccc(S(=O)(=O)/C=C/C#N)cc1 [BAY-11-7085]"
  IC50: "Not Active"
- molecule: "C[C@@H](O)[C@H]1C(=O)N2C(C(=O)O)=C(S[C@@H]3CN[C@H](C(=O)N(C)C)C3)[C@H](C)[C@H]12 [MEROPENEM]"
  IC50: "Not Active"
- molecule: "CC[C@@H](CO)NC(=O)[C@@H]1C=C2c3cccc4c3c(cn4C)C[C@H]2N(C)C1 [METHYSERGIDE]"
  IC50: "Not Active"
- molecule: "C[C@H]([C@](O)(Cn1cncn1)c1ccc(F)cc1F)S(C)(=O)=O [GENACONAZOLE]"
  IC50: "Not Active"
